Where these numbers come from: patent US4678775A

Test system: octopamine-sensitive adenylate cyclase
ASSAY_COMMENT: Activation of octopamine-sensitive adenylate cyclase, firefly light organ broken cell preparation
Assay type: biochemical, Photinus pyralis
Output Fulfilled for records whose octopamine potency ratio is lower than 4, Not fulfilled for records at or above 4.

Qu. octopamine potency ratio strictly < 4 for this molecule? Clc1cc(Cl)c(N=C2NCCN2)cc1Cl
Ans. Fulfilled

Qu. octopamine potency ratio strictly < 4 for this molecule? Cc1ccc(N=C2NCCN2)c(C)c1
Ans. Not fulfilled

Qu. octopamine potency ratio strictly < 4 for this molecule? Cc1cc(Cl)ccc1N=C1NCCN1
Ans. Not fulfilled

Qu. octopamine potency ratio strictly < 4 for this molecule? Clc1cccc(Cl)c1N=C1NCCN1 [clonidine, reference compound]
Ans. Fulfilled

Qu. octopamine potency ratio strictly < 4 for this molecule? Clc1ccc(N=C2NCCN2)c(Cl)c1
Ans. Fulfilled

Qu. octopamine potency ratio strictly < 4 for this molecule? Cc1cc(C)c(N=C2NCCN2)c(C)c1
Ans. Not fulfilled
